tested on: corn; assay: Test B pre/postemergence corn; format: in vivo, Zea mays; conditions: Rate 250 g/ha, Postemergence; scale of 0 to 10 where 0 is no effect and 10 is complete control
endpoint.name: Plant response rating, Corn
Give the value as a plain number.

Example entries begin here.
| molecule | Plant response rating, Corn |
| --- | --- |
| CCC=CCn1c(=O)on(C(=O)N(c2ccccc2)C(C)C)c1=O [Compound 582] | 0 |
| CC(C)N(C(=O)n1oc(=O)n(CCCCF)c1=O)c1ccc(F)cc1F [Compound 522] | 3 |

Form entry - test system: corn; read-out: Plant response rating, Corn; molecule: CCN(C(=O)n1oc(=O)n(C2CCCCC2)c1=O)C1CCCCC1 [Compound 308]
0

Form entry - test system: corn; read-out: Plant response rating, Corn; molecule: CC(C)N(C(=O)n1oc(=O)n(CCCC(F)(F)F)c1=O)c1ccc(F)cc1F [Compound 526]
2

Form entry - test system: corn; read-out: Plant response rating, Corn; molecule: C=CCn1c(=O)on(C(=O)N(c2ccc(Cl)cc2)C(C)C2CC2)c1=O (centres unmarked) [Compound 325]
0

###

test system: soybean; assay: Test B pre/postemergence soybean; type: in vivo, Glycine max; details: Rate 125 g/ha, Postemergence; scale 0 to 10
endpoint.name: Soybean plant response rating
Give the value as a plain number.

Example entries begin here.
| compound | Soybean plant response rating |
| --- | --- |
| C#CCn1c(=O)on(C(=O)N(c2ccc(F)cc2)C(C)C)c1=O [Compound 212] | 2 |
| CSc1ccc(N(C(=O)n2oc(=O)n(-c3ccccc3C)c2=O)C(C)C)cc1 [Compound 205] | 1 |
| Cc1nc(C)c(Cn2c(=O)on(C(=O)N(c3ccc(F)cc3)C(C)C)c2=O)s1 [Compound 232] | 3 |
| Cc1ccccc1-n1c(=O)on(C(=O)N(c2ccc(Cl)cc2Cl)C(C)C)c1=O [Compound 185] | 2 |

We now examine a further compound.
Quick one: Soybean plant response rating for CC(C)N(C(=O)n1oc(=O)n([C@H](C)c2ccccc2)c1=O)c1ccc(F)cc1 [Compound 179] ?
1

###

Below is a list of entries, each paired with its recorded Sugarbeets plant response rating value.
tested on: sugar beet; assay: Test B pre/postemergence sugar beet; assay type: in vivo, Beta vulgaris; settings: Preemergence, Rate 125 g/ha; scale of 0 to 10 where 0 is no effect and 10 is complete control
Give the value as a plain number.

Example entries begin here.
| compound | system.under.test | Sugarbeets plant response rating |
| --- | --- | --- |
| CC(C)N(C(=O)n1oc(=O)n(C(CF)CF)c1=O)c1ccc(F)cc1F | sugar beet | 8 |
| CC(C)N(C(=O)n1oc(=O)n(CC2CCCCO2)c1=O)c1ccc(Cl)cc1 (centres unmarked) | sugar beet | 0 |
| COCCn1c(=O)on(C(=O)N(c2ccc(F)cc2)C(C)C)c1=O | sugar beet | 4 |
| CCOP(=O)(Cn1c(=O)on(C(=O)N(c2ccc(Cl)cc2)C(C)C)c1=O)OCC | sugar beet | 0 |

We now examine a further compound.
Quick one: Sugarbeets plant response rating for C=C(Cl)Cn1c(=O)on(C(=O)N(c2ccc(F)cc2F)C(C)C)c1=O ?
0

###

test system: sugar beet; assay: Test B pre/postemergence sugar beet; format: in vivo, Beta vulgaris; settings: Preemergence, Rate 250 g/ha
Below is a list of entries, each paired with its recorded Sugarbeets plant response rating (0 to 10 scale) value.
Give the value as a plain number.

Quick one: Sugarbeets plant response rating (0 to 10 scale) for CC(C)N(C(=O)n1oc(=O)n(CCCC(F)(F)F)c1=O)c1ccc(F)cc1F ?
8

Quick one: Sugarbeets plant response rating (0 to 10 scale) for CCN(CC)C(=O)Cn1c(=O)on(C(=O)N(c2ccccc2)C(C)C)c1=O ?
0

Quick one: Sugarbeets plant response rating (0 to 10 scale) for CCC=CCn1c(=O)on(C(=O)N(c2ccccc2)C(C)C)c1=O ?
0

Quick one: Sugarbeets plant response rating (0 to 10 scale) for CC(C)N(C(=O)n1oc(=O)n(CCCF)c1=O)c1ccccc1 ?
9

###

Tested on: sugar beet
Experiment: Test B pre/postemergence sugar beet
Type: in vivo, Beta vulgaris
Conditions: Preemergence, Rate 250 g/ha; scale of 0 to 10 where 0 is no effect and 10 is complete control
Method: […] At the same time, these crop and weed species were also treated with postemergence applications of test chemicals formulated in the same manner. […] Treated plants and controls were maintained in a greenhouse for twelve to sixteen days, after which all species were compared to controls and visually evaluated. […]
endpoint.name: Plant response rating, Sugarbeets
Give the value as a plain number.

| cpd.smiles | Plant response rating, Sugarbeets |
| --- | --- |
| COc1cccc(C)c1-n1c(=O)on(C(=O)N(c2ccc(F)cc2F)C(C)C)c1=O | 2 |
| Cc1nn(C)c(Cl)c1-n1c(=O)on(C(=O)N(c2ccccc2)C(C)C)c1=O | 7 |

Form entry - test system: sugar beet; read-out: Plant response rating, Sugarbeets; compound: Cc1cccc(C)c1-n1c(=O)on(C(=O)N(c2ccc(F)cc2)C(C)C)c1=O
2

Form entry - test system: sugar beet; read-out: Plant response rating, Sugarbeets; compound: CCN(CC)C(=O)n1oc(=O)n(Cc2cccs2)c1=O
0

Form entry - test system: sugar beet; read-out: Plant response rating, Sugarbeets; compound: Cc1nn(C)c(Cl)c1-n1c(=O)on(C(=O)N(c2ccc(F)cc2F)C(C)C)c1=O
0

Form entry - test system: sugar beet; read-out: Plant response rating, Sugarbeets; compound: CC(C)N(C(=O)n1oc(=O)n(C(C)(C)C)c1=O)c1ccc(Cl)cc1
0

###

tested on: giant foxtail; experiment: Test B pre/postemergence giant foxtail; format: in vivo, Setaria faberii; conditions: Postemergence, Rate 250 g/ha; scale of 0 to 10, 0 is no effect, 10 is complete control
Below is a list of entries, each paired with its recorded Giant foxtail plant response rating value.
Give the value as a plain number.

Example entries begin here.
| compound | system.under.test | value |
| --- | --- | --- |
| CC[C@H](C)n1c(=O)on(C(=O)N(c2ccc(Cl)cc2)C(C)C)c1=O | giant foxtail | 9 |
| CCC(C)n1c(=O)on(C(=O)N(c2ccccc2)C(C)C)c1=O (stereo not drawn) | giant foxtail | 9 |

We now examine a further compound.
Quick one: Giant foxtail plant response rating for C=C(C)Cn1c(=O)on(C(=O)N(c2ccccc2)C(C)C)c1=O ?
7

###

Tested on: common groundsel
Assay: Test D common groundsel
Type: in vivo, Senecio vulgaris
Conditions: Rate 64 g/ha, Preemergence; 0 to 100 scale, 0 no injury, 100 complete control
Description: […] Test chemicals were formulated in a non-phytotoxic solvent mixture which included a surfactant and applied preemergence to the surface of the pot containing seeds in a sandy loam soil. Untreated control pots and treated pots were placed in the greenhouse for growth and visually evaluated for injury 14 to 21 days after herbicide application. […]
endpoint.name: Plant response rating, Com. groundsel
Give the value as a plain number.

| cpd.smiles | Plant response rating, Com. groundsel |
| --- | --- |
| C=CCn1c(=O)on(C(=O)N(c2ccc(Cl)cc2)C(C)C)c1=O | 0 |
| C=CCn1c(=O)on(C(=O)N(c2ccc(F)cc2F)C(C)C)c1=O | 0 |
| CC(C)N(C(=O)n1oc(=O)n(C2CCCCC2)c1=O)c1ccc(F)cc1F | 10 |
| CCn1c(=O)on(C(=O)N(c2ccccc2)C(C)C)c1=O | 0 |

We now examine a further compound.
Form entry - test system: common groundsel; read-out: Plant response rating, Com. groundsel; compound: CC(C)N(C(=O)n1oc(=O)n(C(C)C)c1=O)c1ccc(F)cc1
85

###

test system: sugar beet; experiment: Test B pre/postemergence sugar beet; assay type: in vivo, Beta vulgaris; settings: Preemergence, Rate 125 g/ha; scale of 0 to 10 where 0 is no effect and 10 is complete control
Below is a list of entries, each paired with its recorded Sugarbeets plant response rating value.
Give the value as a plain number.

Quick one: Sugarbeets plant response rating for CC(C)N(C(=O)n1oc(=O)n(CSC#N)c1=O)c1ccc(F)cc1 [Compound 618] ?
0

Quick one: Sugarbeets plant response rating for CC(C)N(C(=O)n1oc(=O)n(CNC(=O)c2ccccc2)c1=O)c1ccccc1 [Compound 620] ?
0

Quick one: Sugarbeets plant response rating for CC[C@H](C)n1c(=O)on(C(=O)N(c2ccc(F)cc2F)C(C)C)c1=O [Compound 666] ?
4

Quick one: Sugarbeets plant response rating for CC(C)N(C(=O)n1oc(=O)n(CCC2=NOCCC2)c1=O)c1ccc(F)cc1 [Compound 656] ?
0

###

Below is a list of entries, each paired with its recorded Rape plant response rating value.
system: rape; experiment: Test B pre/postemergence rape; format: in vivo, Brassica napus; settings: Preemergence, Rate 500 g/ha; scale of 0 to 10 where 0 is no effect and 10 is complete control

Example entries begin here.
| compound | system.under.test | Rape plant response rating |
| --- | --- | --- |
| CC(C)N(C(=O)n1oc(=O)n(N2C(C)CCCC2C)c1=O)c1ccc(F)cc1 (stereo not shown) [Compound 382] | rape | 0 |
| CC(C)n1c(=O)on(C(=O)N(c2ccc(Cl)cc2Cl)C2CCC2)c1=O [Compound 319] | rape | 0 |
| CC(C)N(C(=O)n1oc(=O)n(CCl)c1=O)c1ccc(F)cc1 [Compound 376] | rape | 0 |
| CC(C)N(C(=O)n1oc(=O)n(CCC2OCCCO2)c1=O)c1ccccc1 [Compound 561] | rape | 9 |
| CC(C)N(C(=O)n1oc(=O)n(COCc2ccccc2)c1=O)c1ccc(F)cc1F [Compound 520] | rape | 0 |

Quick one: Rape plant response rating for CC(C)N(C(=O)n1oc(=O)n(CCCF)c1=O)c1ccccc1 [Compound 559] ?
10

Quick one: Rape plant response rating for CCCCCCn1c(=O)on(C(=O)N(c2ccc(F)cc2)C(C)C)c1=O [Compound 389] ?
8

Quick one: Rape plant response rating for COC(Cn1c(=O)on(C(=O)N(c2ccc(F)cc2)C(C)C)c1=O)OC [Compound 317] ?
10

Quick one: Rape plant response rating for CC(C)N(C(=O)n1oc(=O)n(C(C)C(=O)c2ccccc2)c1=O)c1ccc(F)cc1F (stereo not shown) [Compound 511] ?
0

Quick one: Rape plant response rating for Cc1c(-n2c(=O)on(C(=O)N(c3ccc(Cl)cc3)C(C)C)c2=O)ccc2ccccc12 [Compound 336] ?
0
